PROTOCOL DESCRIPTION: Murine plasma protein binding
CONDITION INFO: mouse, plasma
y if recovery at 4 h is below 90%. n if not; exact matches included in n.

Example entries begin here.
compound="Cc1nc(Nc2ncc(C(=O)Nc3c(CF)csc3Cl)s2)cc(N2CCN(C)C(C)C2)n1 (racemic)" label_value=n
compound=Cc1nc(Nc2ncc(C(=O)Nc3c(C(F)F)csc3Cl)s2)cc(N2CCN(CCO)CC2)n1 label_value=y

Moving on to another compound below.
### Prompt Determine if Cc1nc(Nc2ncc(C(=O)Nc3c(CF)csc3Cl)s2)cc(N2CCCN(C)CC2)n1 shows recovery at 4 h strictly lower than 90%.
### Response n

====

In this section, each of the molecules is paired with its reported Papp.
ASSAY SYSTEM: MDR1 (P-gp) (Homo sapiens (Human), UniProt P08183)
PROTOCOL DESCRIPTION: in vitro
CONDITION INFO: dog, MDCK-MDR1, MDCK-MDR1 cells
Just the number please, in nm/s, no unit attached.

### Prompt Name the recorded Papp for Cc1nc(Nc2ncc(C(=O)Nc3c(Cl)ccnc3C)s2)cc(N2CCN(CCO)CC2)n1 .
### Response 200

### Prompt And then Cc1nc(Nc2ncc(C(=O)Nc3c(C)cccc3Cl)s2)cc(N2CCN(CCO)CC2)n1 , what is it?
### Response 1050

====

PROTOCOL DESCRIPTION: in vivo
CONDITION INFO: male, CD1, mouse, po, 30 mg/kg
READOUT NAME: log10(AUC(0-inf)) (log10 of the value in µM·h)
Values below are the log10 of the recorded AUC(0-inf), with µM·h as the unit.

Take a look at these entries with their results.
compound=Cc1nc(Nc2ncc(C(=O)Nc3c(C)csc3Cl)s2)cc(N2CCN(CCO)CC2)n1 readout_name=log10(AUC(0-inf)) assay_value=0.12
compound="Cc1nc(Nc2ncc(C(=O)Nc3c(CF)csc3Cl)s2)cc(N2CCN(C)C(C)C2)n1 (racemic)" readout_name=log10(AUC(0-inf)) assay_value=0.79
compound=Cc1nc(Nc2ncc(C(=O)Nc3c(C(F)F)csc3Cl)s2)cc(N2CCN(CCO)CC2)n1 readout_name=log10(AUC(0-inf)) assay_value=0.74
compound=Cc1nc(Nc2ncc(C(=O)Nc3c(CF)csc3Cl)s2)cc(N2CCN(C)CC2)n1 readout_name=log10(AUC(0-inf)) assay_value=0.98

Now let's try a different one.
### Prompt Name the recorded log10(AUC(0-inf)) for Cc1nc(Nc2ncc(C(=O)Nc3c(Cl)ccnc3C)s2)cc(N2CCN(CCO)CC2)n1 .
### Response -0.16

====

PROTOCOL DESCRIPTION: Screening PK in mice after 30 mg/kg po
CONDITION INFO: mouse, plasma, po, 30 mg/kg, Plasma concentration after 6 h (nM), mice, 30 mg/kg po, 6 h
In this section, each of the compounds is paired with its reported concentration at 6 h.
Just the number please, in nM, no unit attached.

Take a look at these entries with their results.
compound="Cc1nc(Nc2ncc(C(=O)Nc3c(CF)csc3Cl)s2)cc(N2CCN(CCO)CC2)n1 [Compound E3]" readout_name="concentration at 6 h" assay_value=73
compound="Cc1nc(Nc2ncc(C(=O)Nc3c(CF)csc3Cl)s2)cc(N2CCN(C)C(C)C2)n1 (racemic) [Compound E10]" readout_name="concentration at 6 h" assay_value=157
compound="Cc1nc(Nc2ncc(C(=O)Nc3c(CF)csc3Cl)s2)cc(N2CCCN(C)CC2)n1 [Compound E11]" readout_name="concentration at 6 h" assay_value=219
compound="Cc1nc(Nc2ncc(C(=O)Nc3c(C(F)F)csc3Cl)s2)cc(N2CCN(CCO)CC2)n1 [Compound E4]" readout_name="concentration at 6 h" assay_value=662

Now let's try a different one.
### Prompt Name the recorded concentration at 6 h for Cc1nc(Nc2ncc(C(=O)Nc3c(CF)csc3Cl)s2)cc(N2CCN(C)CC2)n1 [Compound E9] .
### Response 309

====

CONDITION INFO: microsomes
READOUT NAME: Human liver microsomal stability, Intrinsic clearance (µL/min/mg)
Just the number please, in µL/min/mg, no unit attached.

molecule="Cc1nc(Nc2ncc(C(=O)Nc3c(Cl)ccnc3C)s2)cc(N2CCN(CCO)CC2)n1 [Compound B3]" assay_value=24
molecule="Cc1nc(Nc2ncc(C(=O)Nc3c(C)cncc3Cl)s2)cc(N2CCN(CCO)CC2)n1 [Compound C4]" assay_value=115

Now let's try a different one.
### Prompt Name the recorded Human liver microsomal stability, Intrinsic clearance for Cc1nc(Nc2ncc(C(=O)Nc3c(C)csc3Cl)s2)cc(N2CCN(CCO)CC2)n1 [Compound C7] .
### Response 2.53e+08

====

PROTOCOL DESCRIPTION: in vitro
CONDITION INFO: human, microsomes
READOUT NAME: microsomal CLint (µL/min/mg)
Just the number please, in µL/min/mg, no unit attached.

molecule=Cc1nc(Nc2ncc(C(=O)Nc3c(C(F)F)csc3Cl)s2)cc(N2CCN(CCO)CC2)n1 readout_name="microsomal CLint" assay_value=65
molecule=Cc1nc(Nc2ncc(C(=O)Nc3c(CF)csc3Cl)s2)cc(N2CCN(C)CC2)n1 readout_name="microsomal CLint" assay_value=131
molecule=Cc1nc(Nc2ncc(C(=O)Nc3c(CF)csc3Cl)s2)cc(N2CCN(CCO)CC2)n1 readout_name="microsomal CLint" assay_value=86
molecule=Cc1nc(Nc2ncc(C(=O)Nc3c(C)csc3Cl)s2)cc(N2CCN(CCO)CC2)n1 readout_name="microsomal CLint" assay_value=142
molecule="Cc1nc(Nc2ncc(C(=O)Nc3c(CF)csc3Cl)s2)cc(N2CCN(C)C(C)C2)n1 (racemic)" readout_name="microsomal CLint" assay_value=120

Now let's try a different one.
### Prompt Name the recorded microsomal CLint for Cc1nc(Nc2ncc(C(=O)Nc3c(CF)csc3Cl)s2)cc(N2CCCN(C)CC2)n1 .
### Response 72

====

In this section, each of the compounds is paired with its reported Murine plasma protein binding, Percentage unbound (%).
PROTOCOL DESCRIPTION: Murine plasma protein binding
CONDITION INFO: Table 5.1A
Remember to follow the number with its unit.

Take a look at these entries with their results.
compound="Cc1nc(Nc2ncc(C(=O)Nc3c(CF)csc3Cl)s2)cc(N2CCCN(C)CC2)n1 [Compound E11]" assay_value=1%
compound="Cc1nc(Nc2ncc(C(=O)Nc3c(C)csc3Cl)s2)cc(N2CCN(CCO)CC2)n1 [Compound C7]" assay_value=3%
compound="Cc1nc(Nc2ncc(C(=O)Nc3c(CF)csc3Cl)s2)cc(N2CCN(C)C(C)C2)n1 (racemic) [Compound E10]" assay_value=1%
compound="Cc1nc(Nc2ncc(C(=O)Nc3c(CF)csc3Cl)s2)cc(N2CCN(CCO)CC2)n1 [Compound E3]" assay_value=4%
compound="Cc1nc(Nc2ncc(C(=O)Nc3c(C(F)F)csc3Cl)s2)cc(N2CCN(CCO)CC2)n1 [Compound E4]" assay_value=2%

### Prompt Name the recorded Murine plasma protein binding, Percentage unbound (%) for Cc1nc(Nc2ncc(C(=O)Nc3c(Cl)ccnc3C)s2)cc(N2CCN(CCO)CC2)n1 [Compound B3] .
### Response 11%

### Prompt And then Cc1nc(Nc2ncc(C(=O)Nc3c(CF)csc3Cl)s2)cc(N2CCN(C)CC2)n1 [Compound E9] , what is it?
### Response 1%

====

PROTOCOL DESCRIPTION: Screening PK in mice after 30 mg/kg po
CONDITION INFO: CD1, mouse, plasma, po, 30 mg/kg, Free concentration (nM) at 2 hours, mice, 30 mg/kg po, 2 hours
READOUT NAME: concentration at 2 h (nM)
Just the number please, in nM, no unit attached.

### Prompt Name the recorded concentration at 2 h for Cc1nc(Nc2ncc(C(=O)Nc3c(Cl)ccnc3C)s2)cc(N2CCN(CCO)CC2)n1 .
### Response 13

====

CONDITION INFO: male, CD1, mouse, in vivo, po, 30 mg/kg
In this section, each of the compounds is paired with its reported AUClast (nM*h), Free.
Just the number please, in nM·h, no unit attached.

compound=Cc1nc(Nc2ncc(C(=O)Nc3c(CF)csc3Cl)s2)cc(N2CCN(C)CC2)n1 readout_name="AUClast (nM*h), Free" assay_value=238.75
compound=Cc1nc(Nc2ncc(C(=O)Nc3c(C)csc3Cl)s2)cc(N2CCN(CCO)CC2)n1 readout_name="AUClast (nM*h), Free" assay_value=52.07
compound="Cc1nc(Nc2ncc(C(=O)Nc3c(CF)csc3Cl)s2)cc(N2CCN(C)C(C)C2)n1 (racemic)" readout_name="AUClast (nM*h), Free" assay_value=122.87

Now let's try a different one.
### Prompt Name the recorded AUClast (nM*h), Free for Cc1nc(Nc2ncc(C(=O)Nc3c(C(F)F)csc3Cl)s2)cc(N2CCN(CCO)CC2)n1 .
### Response 147.93
